Assay: LFS_MB_1R medulloblastoma cell growth inhibition, synergistic combos for chromothripsis tumors, cisplatin or BGB combos (AID 1671452);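 note: cells exposed for 96 hours before readout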
Details: LFS_MB_1R medulloblastoma cells, measured here: combination with BGB IC40, at 0.05 µM, stronger effect = higher value
Rule: inhibition under -20% gives F, otherwise T.

1. O=c1cc(-c2cccc3c2Sc2ccccc2S3)oc(N2CCOCC2)c1 : F
2. CC(C)N=c1cc2n(-c3ccc(Cl)cc3)c3ccccc3nc-2cc1Nc1ccc(Cl)cc1 : F
3. O=c1ncccn1[C@@H]1O[C@H](CO)[C@@H](O)[C@H]1O : F
4. CCc1c2c(nc3ccc(O)cc13)-c1cc3c(c(=O)n1C2)COC(=O)[C@]3(O)CC : T
5. Cc1c(-c2cnccn2)ssc1=S : T
6. O=c1[nH]c(-c2ccc(C(F)(F)F)cc2)nc2c1CSCC2 : F
7. CO[C@H]1/C=C/O[C@@]2(C)Oc3c(C)c(O)c4c(O)c(c(C=NN5CCN(C)CC5)c(O)c4c3C2=O)NC(=O)/C(C)=C\C=C\[C@H](C)[C@H](O)[C@@H](C)[C@@H](O)[C@@H](C)[C@H](OC(C)=O)[C@@H]1C : F
